System Name: Mitogen-activated protein kinase kinase kinase 12 (DLK/MAP3K12) (Homo sapiens) (UniProt Q12852)
Sequence (Q12852 whole entry, looked up): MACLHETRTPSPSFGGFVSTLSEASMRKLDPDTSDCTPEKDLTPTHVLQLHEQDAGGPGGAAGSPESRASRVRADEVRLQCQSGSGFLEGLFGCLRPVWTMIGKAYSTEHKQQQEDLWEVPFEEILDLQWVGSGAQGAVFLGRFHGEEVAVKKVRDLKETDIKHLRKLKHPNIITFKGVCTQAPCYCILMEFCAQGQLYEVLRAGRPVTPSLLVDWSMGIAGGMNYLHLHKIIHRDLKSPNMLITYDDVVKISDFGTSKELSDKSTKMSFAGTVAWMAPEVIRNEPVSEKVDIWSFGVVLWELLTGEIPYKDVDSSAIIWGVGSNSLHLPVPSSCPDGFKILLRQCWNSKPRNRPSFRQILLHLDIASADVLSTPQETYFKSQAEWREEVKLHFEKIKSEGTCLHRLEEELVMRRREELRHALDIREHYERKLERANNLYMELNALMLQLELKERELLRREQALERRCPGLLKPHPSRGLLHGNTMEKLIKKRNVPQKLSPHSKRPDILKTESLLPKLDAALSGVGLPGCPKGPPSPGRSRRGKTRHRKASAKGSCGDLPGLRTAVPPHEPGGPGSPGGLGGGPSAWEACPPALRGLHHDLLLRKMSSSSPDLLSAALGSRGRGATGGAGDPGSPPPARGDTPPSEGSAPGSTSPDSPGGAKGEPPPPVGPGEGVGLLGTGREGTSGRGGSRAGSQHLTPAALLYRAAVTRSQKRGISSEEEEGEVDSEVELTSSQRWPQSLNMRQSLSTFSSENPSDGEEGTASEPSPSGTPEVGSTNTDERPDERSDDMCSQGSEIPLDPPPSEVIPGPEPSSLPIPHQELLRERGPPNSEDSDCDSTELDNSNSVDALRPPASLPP
Experimental Details: Inhibition of human DLK by discoverX kinome scan assay
Measure Name: IC50

**Q:** Sample `Cc1cn(CCN2CCN(c3ccccc3-c3cc(C#N)cc(C(=O)NCCCN4CCCC4)c3)CC2)c2ccccc12` — what was its IC50?
**A:** > 20 µM

* * *

System Name: Mitogen-activated protein kinase kinase kinase 7 (TAK1/MAP3K7) (Homo sapiens)
Experimental Details: Inhibition of human TAK1 by discoverX kinome scan assay
pIC50: −log10 of the molar value.
Measure Name: pIC50

**Q:** Sample `Cc1cn(CCN2CCN(c3ccccc3-c3cc(C#N)cc(C(=O)NCCCN4CCCC4)c3)CC2)c2ccccc12` — what was its pIC50?
**A:** < 4.70
